Origin of the recorded values: paper PMC9701171

target: HbA (Homo sapiens, UniProt P69905); experiment: Time-dependent HbA binding kinetics
Sequence (P69905 2-142 limits assumed): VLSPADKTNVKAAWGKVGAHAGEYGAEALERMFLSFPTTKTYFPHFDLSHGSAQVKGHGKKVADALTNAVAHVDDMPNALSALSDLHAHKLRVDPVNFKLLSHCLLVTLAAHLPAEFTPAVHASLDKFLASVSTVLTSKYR
Sequence (P68871 2-147 partner limits assumed): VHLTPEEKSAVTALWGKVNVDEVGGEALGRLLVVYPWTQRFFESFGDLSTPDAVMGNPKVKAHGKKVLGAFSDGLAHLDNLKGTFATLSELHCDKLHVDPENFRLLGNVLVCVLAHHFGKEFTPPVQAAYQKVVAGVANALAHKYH
Entries and their Kd
Please give a number only; it is taken to be in mM.

COMPOUND	UNIT ABBREV	Kd
O=Cc1ccc(C=O)o1 [2,5-DMF, 2,5-Furandicarboxaldehyde]	mM	0.12

API: the following record is the query input.
In: Quick one: Kd of COc1cc(C=O)ccc1O [Vanillin, 4-Hydroxy-5-methoxybenzaldehyde] ?
Out: 4.3
